Reference source for all entries: ChEMBL document CHEMBL1255291

Assay: Toxicity in breast fibroblasts
Format: cell-based
Details: Fibroblast
MEASUREMENT LABEL: IC50 (µM)
Entry rule: numbers only, all in µM.

# input Using the record for Nc1ccccc1NC(=O)c1ccc(CNC(=O)OCc2cccnc2)cc1 , report its IC50.
# output 20

----------
Experiment: Selectivity index, ratio of IC50 for human WI38 cells to IC50 for chloroquine-sensitive Plasmodium falciparum 3D7
MEASUREMENT LABEL: selectivity ratio

# input Using the record for Nc1ccccc1NC(=O)c1ccc(CNC(=O)OCc2cccnc2)cc1 [ENTINOSTAT] , report its selectivity ratio.
# output > 2.4

----------
Assay: Selectivity index, ratio of IC50 for human WI38 cells to IC50 for chloroquine-resistant Plasmodium falciparum Dd2
MEASUREMENT LABEL: selectivity ratio

# input Using the record for Nc1ccccc1NC(=O)c1ccc(CNC(=O)OCc2cccnc2)cc1 [ENTINOSTAT] , report its selectivity ratio.
# output > 2.6
